Recorded 180 nM hFGFR1c-V5-6His Bind (RU) for the following binders
Study target: T1, extracellular domain of human FGFR1c expressed with C-terminal V5 and hexahistidine tags (human, UniProt P11362 22-376)
T1 construct: also called hFGFR1c-V5-6His
T1 sequence: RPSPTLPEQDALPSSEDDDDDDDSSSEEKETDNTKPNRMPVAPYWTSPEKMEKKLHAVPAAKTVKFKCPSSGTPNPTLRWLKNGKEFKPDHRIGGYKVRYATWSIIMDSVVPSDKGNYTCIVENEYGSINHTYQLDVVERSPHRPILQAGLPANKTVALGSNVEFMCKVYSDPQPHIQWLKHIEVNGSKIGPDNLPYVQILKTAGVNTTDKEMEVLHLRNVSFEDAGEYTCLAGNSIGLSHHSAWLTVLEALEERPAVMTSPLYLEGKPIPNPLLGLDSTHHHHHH
Measurement notes: SPR, mAb captured, 25 C
Give the number; RU is assumed, so skip it.

Solved cases below.
H2bM8833N (antibody, V domains shown, mouse IgG2 Fc (H2bM prefix)) VH: QVQLVESGGGVVQPGRSLRLSCAASGFTFSRYGIHWVRQAPGKGLEWVAVIWYDGSNKYYADSLKGRFTISRDNSKNTLYLQMNSLRAEDTAVYYCARDQGNYIDYWGQGTLVTVSS VL: AIQMTQSPSSLSASVGDRVTITCRTSQGIRNDLGWYQQKPGKVPKLLIYAASSLQSGVPSRFSGSGSGTDFTLTISSLQPEDFATYYCLQDYNYPFTFGPGTKVDIK | 1.9
H4H8852P (antibody, V domains shown, human IgG4 Fc (H4H prefix)) VH: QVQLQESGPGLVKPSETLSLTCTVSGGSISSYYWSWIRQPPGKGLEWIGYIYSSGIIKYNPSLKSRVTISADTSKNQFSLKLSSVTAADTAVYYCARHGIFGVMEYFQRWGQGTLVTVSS VL: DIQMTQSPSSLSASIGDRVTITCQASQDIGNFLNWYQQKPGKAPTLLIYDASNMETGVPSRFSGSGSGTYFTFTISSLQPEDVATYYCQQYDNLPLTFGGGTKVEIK | 0
H2aM8093N (antibody, V domains shown, mouse IgG2 Fc (H2aM prefix)) VH: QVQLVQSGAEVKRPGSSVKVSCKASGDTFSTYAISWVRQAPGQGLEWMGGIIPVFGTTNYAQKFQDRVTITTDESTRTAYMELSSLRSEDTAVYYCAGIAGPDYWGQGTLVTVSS VL: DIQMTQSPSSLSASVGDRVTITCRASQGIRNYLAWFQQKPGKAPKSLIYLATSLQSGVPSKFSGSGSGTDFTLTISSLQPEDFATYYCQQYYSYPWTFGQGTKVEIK | -1.2
H4H8880P (antibody, V domains shown, human IgG4 Fc (H4H prefix)) VH: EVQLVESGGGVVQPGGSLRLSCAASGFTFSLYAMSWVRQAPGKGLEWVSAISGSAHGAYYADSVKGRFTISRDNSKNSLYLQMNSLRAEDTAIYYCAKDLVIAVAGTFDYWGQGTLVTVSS VL: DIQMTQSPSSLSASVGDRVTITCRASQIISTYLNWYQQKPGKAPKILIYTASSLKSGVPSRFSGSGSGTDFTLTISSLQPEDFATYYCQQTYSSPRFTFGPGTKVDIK | 0.4

// next item, 180 nM hFGFR1c-V5-6His Bind (RU) requested
Would you kindly share the measured 180 nM hFGFR1c-V5-6His Bind (RU) for H4H8871P (antibody, V domains shown, human IgG4 Fc (H4H prefix)) VH: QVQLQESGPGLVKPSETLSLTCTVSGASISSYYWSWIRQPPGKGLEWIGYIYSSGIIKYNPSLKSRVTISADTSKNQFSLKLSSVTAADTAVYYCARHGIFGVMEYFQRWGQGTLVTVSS VL: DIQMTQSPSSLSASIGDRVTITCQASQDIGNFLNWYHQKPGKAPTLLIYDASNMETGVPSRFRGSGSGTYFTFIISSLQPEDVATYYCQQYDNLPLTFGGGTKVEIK ?
0.4
